Molecular target: human recombinant serotonin (5-Hydroxytryptamine) 5-HT6 receptor (Homo sapiens, UniProt P50406)
Construct: expressed in transfected cells; host or cells: human HeLa cells
Sequence (P50406 whole entry): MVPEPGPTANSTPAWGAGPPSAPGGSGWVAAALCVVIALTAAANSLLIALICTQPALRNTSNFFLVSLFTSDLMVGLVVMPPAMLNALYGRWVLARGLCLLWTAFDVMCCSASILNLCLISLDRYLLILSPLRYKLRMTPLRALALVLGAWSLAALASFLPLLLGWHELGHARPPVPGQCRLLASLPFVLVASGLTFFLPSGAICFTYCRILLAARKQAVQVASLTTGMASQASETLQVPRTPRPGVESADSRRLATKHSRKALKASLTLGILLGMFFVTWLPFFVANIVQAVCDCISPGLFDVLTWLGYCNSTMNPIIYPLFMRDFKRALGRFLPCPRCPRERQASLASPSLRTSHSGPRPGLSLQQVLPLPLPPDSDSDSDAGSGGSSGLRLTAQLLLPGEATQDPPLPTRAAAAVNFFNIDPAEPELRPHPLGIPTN
Assay: Serotonin 5-HT6 radioligand binding ([3H]LSD)
Details: compound at 0.1 μM; read-out: Percentage inhibition of ligand binding, Serotonin (0.1 μM) 5-HT6
measure: inhibition at 0.1 µM (%)
Number only, in %; omit the unit.

Cc1ccc2[nH]c3c(c2c1)CN(C)CC3(C)CCc1ccccc1 (stereo not drawn) [Compound 43]	9

Return value of inhibition at 0.1 µM for input Cc1ccc2c(c1)c1c(n2C)C(C)(CCc2ccccc2)CN(C)C1 (stereo not drawn) [Compound 44] , no commentary.
17

Return value of inhibition at 0.1 µM for input C#CCC1(C)CN(C)Cc2c1n(C)c1ccc(C)cc21 (stereo not drawn) [Compound 47] , no commentary.
14

Return value of inhibition at 0.1 µM for input Cc1ccc2[nH]c3c(c2c1)CN(C)CC3(C)CCc1ccc(C)nc1 (stereo not drawn) [Compound 46] , no commentary.
6

Return value of inhibition at 0.1 µM for input Cc1ccc2c(c1)c1c(n2C)C(C)(CCc2ccc(C)nc2)CN(C)C1 (stereo not drawn) [Compound 45] , no commentary.
-4

Return value of inhibition at 0.1 µM for input Cc1ccc2c(c1)c1c(n2C)C(C)(CCc2nc(-c3ccccc3)cs2)CN(C)C1 (stereo not drawn) [Compound 48] , no commentary.
22

----------
Readings of inhibition at 1 µM for the listed compounds
Biological target: human recombinant dopamine D2L receptor (Homo sapiens, UniProt P14416)
Sequence (P14416 whole entry): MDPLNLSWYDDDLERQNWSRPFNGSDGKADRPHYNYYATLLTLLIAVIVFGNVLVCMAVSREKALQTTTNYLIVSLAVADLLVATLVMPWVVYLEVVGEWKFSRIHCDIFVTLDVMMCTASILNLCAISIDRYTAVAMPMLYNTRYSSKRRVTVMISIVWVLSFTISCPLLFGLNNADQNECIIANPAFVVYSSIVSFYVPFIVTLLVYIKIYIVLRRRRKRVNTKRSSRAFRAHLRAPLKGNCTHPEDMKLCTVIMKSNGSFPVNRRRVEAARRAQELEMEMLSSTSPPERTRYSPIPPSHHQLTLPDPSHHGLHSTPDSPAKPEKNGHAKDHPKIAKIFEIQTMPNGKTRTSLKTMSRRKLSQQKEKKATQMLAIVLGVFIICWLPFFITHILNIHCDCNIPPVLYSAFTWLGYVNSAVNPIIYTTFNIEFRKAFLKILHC
Test: Dopamine D2L radioligand binding ([3H]Spiperone)
Conditions: compound at 1 μM; read-out: Percentage inhibition of ligand binding, Dopamine (1 μM) D2L
Number only, in %; omit the unit.

Return value of inhibition at 1 µM for input Cc1ccc2c(c1)c1c(n2C)C(C)(CCc2ccc(C)nc2)CN(C)C1 (stereo not shown) [Compound 45] , no commentary.
5

----------
Molecular target: human recombinant serotonin (5-Hydroxytryptamine) 5-HT2A receptor (Homo sapiens, UniProt P28223)
Construct: expressed in transfected cells; host or cells: Chinese hamster ovary (CHO) K1 cells
Sequence (P28223 whole entry): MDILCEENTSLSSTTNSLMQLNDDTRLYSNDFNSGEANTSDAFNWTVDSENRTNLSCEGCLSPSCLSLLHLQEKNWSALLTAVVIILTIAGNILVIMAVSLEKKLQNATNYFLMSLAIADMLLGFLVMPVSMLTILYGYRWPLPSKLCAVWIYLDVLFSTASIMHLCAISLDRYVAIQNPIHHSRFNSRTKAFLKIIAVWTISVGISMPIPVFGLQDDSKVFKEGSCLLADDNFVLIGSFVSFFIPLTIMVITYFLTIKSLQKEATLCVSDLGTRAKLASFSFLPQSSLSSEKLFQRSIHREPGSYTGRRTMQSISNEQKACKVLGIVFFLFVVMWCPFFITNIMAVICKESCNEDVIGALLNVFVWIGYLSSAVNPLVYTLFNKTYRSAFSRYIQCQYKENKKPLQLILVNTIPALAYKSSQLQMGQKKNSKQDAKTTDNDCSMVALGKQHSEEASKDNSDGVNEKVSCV
Experiment: Serotonin 5-HT2A radioligand binding ([3H]Ketanserin)
Settings: compound at 0.1 μM; read-out: Percentage inhibition of ligand binding, Serotonin (0.1 μM) 5-HT2A
Procedure: To evaluate in radioligand binding assays the activity of compounds of the invention, human recombinant serotonin (5-Hydroxytryptamine) 5-HT2A receptor expressed in Chinese hamster ovary (CHO) K1 cells (Bonhaus, D. et al, Br. J. Pharmacol. 115:622, 1995; Saucier, C. et al, J. Neurochem. 68:1998, 1997) in a 50 mM Tris-HCl buffer, pH 7.4, was used. […] Receptor proteins were filtered and washed, the filters were then counted to determine [^3H]Ketanserin specifically bound. […]
Threshold rule: inhibition at 0.1 µM greater than or equal to 20% is yes; below that, no.

Quick check, inhibition at 0.1 µM >= 20%? Cc1ccc2c(c1)c1c(n2C)C(C)(CCc2ccccc2)CN(C)C1 (stereo not drawn)
no

Quick check, inhibition at 0.1 µM >= 20%? Cc1ccc2c(c1)c1c(n2C)C(C)(CCc2ccc(C)nc2)CN(C)C1 (stereo not drawn)
no

Quick check, inhibition at 0.1 µM >= 20%? Cc1ccc2[nH]c3c(c2c1)CN(C)CC3(C)CCc1ccc(C)nc1 (stereo not drawn)
no

Quick check, inhibition at 0.1 µM >= 20%? Cc1ccc2[nH]c3c(c2c1)CN(C)CC3(C)CCc1ccccc1 (stereo not drawn)
no

Quick check, inhibition at 0.1 µM >= 20%? Cc1ccc2c(c1)c1c(n2C)C(C)(CCc2nc(-c3ccccc3)cs2)CN(C)C1 (stereo not drawn)
yes

Quick check, inhibition at 0.1 µM >= 20%? C#CCC1(C)CN(C)Cc2c1n(C)c1ccc(C)cc21 (stereo not drawn)
yes
